target-desc: Aurora kinase B (Homo sapiens, UniProt Q96GD4)
Sequence (Q96GD4 whole entry): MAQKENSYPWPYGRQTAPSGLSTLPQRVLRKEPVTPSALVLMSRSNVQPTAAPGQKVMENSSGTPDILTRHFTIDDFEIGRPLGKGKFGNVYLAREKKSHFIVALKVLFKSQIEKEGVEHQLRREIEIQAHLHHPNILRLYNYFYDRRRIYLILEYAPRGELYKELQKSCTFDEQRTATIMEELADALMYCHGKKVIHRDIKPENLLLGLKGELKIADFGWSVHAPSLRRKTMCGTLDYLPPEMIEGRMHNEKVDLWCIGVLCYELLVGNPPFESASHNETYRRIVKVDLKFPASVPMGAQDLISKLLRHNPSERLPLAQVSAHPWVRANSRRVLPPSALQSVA
measurement-description: Inhibition of Aurora B (unknown origin) using HLRRASLG substrate at 1 uM
Classify by measured inhibition: true (1) if it is equal to or exceeds 10%, false (0) if it is smaller.

Consider the following illustrative entries.
COc1ccc(C(=O)NC(=O)Nc2ccc3c(c2)NC(=O)/C3=C/c2ccccc2)cc1 ... true (1)
COc1ccc(C(=O)NC(=O)Nc2ccc3c(c2)/C(=C/c2ccc[nH]2)C(=O)N3)cc1 ... true (1)
COc1ccc(C(=O)NC(=O)Nc2ccc3c(c2)NC(=O)/C3=C/c2ccccn2)cc1 ... true (1)
COc1ccc(C(=O)NC(=O)Nc2cccc3c2/C(=C/c2ccc[nH]2)C(=O)N3)cc1 ... true (1)
COc1ccc(C(=O)NC(=O)Nc2ccc3c(c2)NC(=O)/C3=C/c2ccncc2)cc1 ... false (0)

stdin: inhibition >= 10% for COc1ccc(C(=O)NC(=O)Nc2cccc3c2NC(=O)/C3=C\c2ccc[nH]2)cc1 ?
stdout: false (0)

stdin: inhibition >= 10% for COc1ccc(/C=C2/C(=O)Nc3cc(NC(=O)NC(=O)c4ccc(OC)cc4)ccc32)cc1 ?
stdout: true (1)

stdin: inhibition >= 10% for COc1ccc(C(=O)NC(=O)Nc2ccc3c(c2)NC(=O)/C3=C/c2ccc(N(C)C)cc2)cc1 ?
stdout: true (1)

stdin: inhibition >= 10% for COc1ccc(C(=O)NC(=O)Nc2ccc3c(c2)NC(=O)/C3=C/c2ccc(Cl)c(Cl)c2)cc1 ?
stdout: false (0)

* * *

measurement-description: Clearance in BALB/c mouse at 2 mg/kg, iv
Format: ADME, organism-based
Parameters: dose 2 mg/kg, route intravenous
run-parameters: in vivo
recorded-metric: clearance
Answer with the number, then the unit.

stdin: What value of clearance has been reported for the following compound? COc1ccc(C(=O)NC(=O)Nc2ccc3c(c2)NC(=O)/C3=C\c2[nH]c(C)c(C(=O)NCCN3CCCC3)c2C)c(F)c1
stdout: 8.33 mL/min/kg

* * *

measurement-description: Cmax in BALB/c mouse at 10 mg/kg, po
Type: ADME, organism-based
Parameters: dose 10 mg/kg, route oral
run-parameters: in vivo
recorded-metric: Cmax (ng/mL)
A number alone suffices; assume ng/mL.

stdin: What value of Cmax has been reported for the following compound? COc1ccc(C(=O)NC(=O)Nc2ccc3c(c2)NC(=O)/C3=C\c2[nH]c(C)c(C(=O)NCCN3CCCC3)c2C)c(F)c1
stdout: 20.9

* * *

measurement-description: Volume of distribution at steady state in BALB/c mouse at 2 mg/kg, iv
Format: ADME, organism-based
Parameters: dose 2 mg/kg, route intravenous
run-parameters: in vivo, read-out: Vdss
recorded-metric: Vd (L/kg)
A number alone suffices; assume L/kg.

stdin: What value of Vd has been reported for the following compound? COc1ccc(C(=O)NC(=O)Nc2ccc3c(c2)NC(=O)/C3=C\c2[nH]c(C)c(C(=O)NCCN3CCCC3)c2C)c(F)c1
stdout: 22.2

* * *

measurement-description: Ratio of solubility in PBS to solubility in DMSO
Format: physicochemical
recorded-metric: Ratio
API note: the answer field is a bare number with no unit suffix.

Take a look at these entries with their results.
COc1ccc(C(=O)NC(=O)Nc2ccc3c(c2)NC(=O)/C3=C\c2[nH]c(C)c(C(=O)NCCN3CCCC3)c2C)c(F)c1.CS(=O)(=O)O ... 0.97
COc1ccc(C(=O)NC(=O)Nc2ccc3c(c2)NC(=O)/C3=C\c2[nH]c(C)c(C(=O)NCCN3CCCC3)c2C)c(F)c1 ... 0.36
COc1ccc(C(=O)NC(=O)Nc2ccc3c(c2)NC(=O)/C3=C\c2ccc[nH]2)cc1 ... 0.37

stdin: What value of Ratio has been reported for the following molecule? COc1ccc(C(=O)NC(=O)Nc2ccc3c(c2)NC(=O)/C3=C\c2[nH]c(C)c(C(=O)O)c2C)c(F)c1
stdout: 0.58

stdin: What value of Ratio has been reported for the following molecule? COc1ccc(C(=O)NC(=O)Nc2cc3c(cc2F)/C(=C/c2[nH]c(C)c(C(=O)O)c2C)C(=O)N3)cc1
stdout: 0.58

stdin: What value of Ratio has been reported for the following molecule? COc1ccc(C(=O)NC(=O)Nc2ccc3c(c2)NC(=O)/C3=C\c2[nH]c(C)c(CCC(=O)O)c2C)cc1
stdout: 0.57

stdin: What value of Ratio has been reported for the following molecule? COc1ccc(C(=O)NC(=O)Nc2ccc3c(c2)NC(=O)/C3=C\c2[nH]c(C)c(C(=O)O)c2C)cc1
stdout: 0.32
